# ASSAY PROCEDURE: Displacement of FITC-phalloidin from rabbit muscle actin polymer after 1 hr by fluorescence analysis
# Format: tissue-based, Oryctolagus cuniculus, Muscle tissue
ATTRIBUTE MEASURED: EC50 (µM)
One number for each entry, in µM.

# get_value(readout='EC50', item= C/C1=C\[C@H](C)C[C@H](C)OC(=O)C[C@H](c2ccc(O)cc2)NC(=O)[C@@H](Cc2c(Br)[nH]c3ccccc23)N(C)C(=O)[C@H](C)NC(=O)[C@@H](C)C1 [JASPAMIDE] )
6.5
